Values compiled from patent US20110206607A1.

# Experimental Target: human CB2 (Homo sapiens)
# Construct: expressed in transfected cells; host or cells: HEK-293T (transient transfection, membrane preparation)
# Protocol Details: CB2 receptor binding assay, block of [3H]-CP 55,940 binding
# Run Parameters: membranes of HEK-293T cells transfected with human CB2 cDNA; 1.5 nM [3H]-CP 55,940
Measurement Kind: pKi

{"Smiles Data": "Cc1ccn2c(Nc3ccc4c(c3)OCCO4)c(-c3ncccc3F)nc2c1", "Experimental Target": "human CB2 (Homo sapiens)", "Val": 5.7}
{"Smiles Data": "COc1cccc2nc(-c3c(Cl)ncnc3Cl)c(Nc3ccc4c(c3)OCCO4)n12", "Experimental Target": "human CB2 (Homo sapiens)", "Val": 8.2}
{"Smiles Data": "Fc1cccnc1-c1nc2cnccn2c1Nc1ccc2c(c1)OCCO2", "Experimental Target": "human CB2 (Homo sapiens)", "Val": 5.2}

1: COc1cccc2nc(-c3c(F)ccc(OCCF)c3Cl)c(Nc3ccc4c(c3)OCCO4)n12
2: Fc1ccc(-c2nc3ccccn3c2Nc2ccc3c(c2)OCCO3)cn1
Exercise: Lowest pKi? choose 1 or 2 // caller expects the label of the chosen entry
Key: 2

* * *

# Experimental Target: human CB2 (Homo sapiens, UniProt P34972)
# Construct: expressed in transfected cells; host or cells: HEK-293T (transient transfection, membrane preparation)
# Sequence (P34972 whole entry): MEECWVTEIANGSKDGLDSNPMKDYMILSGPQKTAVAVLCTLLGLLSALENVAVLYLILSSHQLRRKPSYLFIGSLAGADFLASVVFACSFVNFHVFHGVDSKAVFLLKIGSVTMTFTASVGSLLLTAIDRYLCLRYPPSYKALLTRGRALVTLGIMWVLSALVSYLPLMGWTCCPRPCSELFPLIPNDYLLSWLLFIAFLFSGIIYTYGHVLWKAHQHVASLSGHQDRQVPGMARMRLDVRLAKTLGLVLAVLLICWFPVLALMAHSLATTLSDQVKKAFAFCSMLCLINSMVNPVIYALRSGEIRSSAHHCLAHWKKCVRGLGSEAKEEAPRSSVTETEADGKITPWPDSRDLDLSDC
# Protocol Details: CB2 receptor binding assay, block of [3H]-CP 55,940 binding
# Run Parameters: membranes of HEK-293T cells transfected with human CB2 cDNA; 1.5 nM [3H]-CP 55,940
Measurement Kind: pKi

{"Smiles Data": "Cc1ccc2nc(-c3c(Cl)cccc3[N+](=O)[O-])c(Nc3ccc4c(c3)OCCO4)n2c1", "Val": 7.4}
{"Smiles Data": "COc1cc(-c2nc3ccc(Cl)cn3c2Nc2ccc3c(c2)OCCO3)ccc1O", "Val": 6.7}
{"Smiles Data": "Cc1cc(O)cc(C)c1-c1nc2ccc(F)cn2c1Nc1ccc2c(c1)OCCO2", "Val": 7.8}
{"Smiles Data": "COc1cccc(OC)c1-c1nc2ccc(C)cn2c1Nc1ccc2c(c1)OCCO2", "Val": 6.5}
{"Smiles Data": "Oc1cc(F)c(-c2nc3cccc(OCCF)n3c2Nc2ccc3c(c2)OCCO3)c(F)c1", "Val": 7.6}
{"Smiles Data": "COc1cc(-c2nc3ncccn3c2Nc2ccc3c(c2)OCCO3)ccc1O", "Val": 6.8}

* * *

# Experimental Target: human CB2 (Homo sapiens)
# Construct: expressed in transfected cells; host or cells: HEK-293T (transient transfection, membrane preparation)
# Protocol Details: CB2 receptor binding assay, block of [3H]-CP 55,940 binding
# Run Parameters: membranes of HEK-293T cells transfected with human CB2 cDNA; 1.5 nM [3H]-CP 55,940
Measurement Kind: pKi

{"Compound": "Cc1ccc2nc(-c3c(F)cccc3Cl)c(Nc3ccc4c(c3)OCCO4)n2c1 [CR-42]", "Experimental Target": "human CB2 (Homo sapiens)", "Val": 7.5}
{"Compound": "COc1cccc2nc(-c3c(F)cccc3Cl)c(NC(=O)Nc3ccc4c(c3)OCCO4)n12 [CR-109]", "Experimental Target": "human CB2 (Homo sapiens)", "Val": 6.3}
{"Compound": "Cc1cccn2c(Nc3ccc4c(c3)OCO4)c(-c3c(F)cccc3Cl)nc12 [CR-129]", "Experimental Target": "human CB2 (Homo sapiens)", "Val": 6.4}
{"Compound": "COc1cc(-c2nc3ccccn3c2Nc2ccc3c(c2)OCCO3)cc(F)c1O [CR-93]", "Experimental Target": "human CB2 (Homo sapiens)", "Val": 5.7}
{"Compound": "Cc1cncc2nc(-c3c(F)cccc3Cl)c(Nc3ccc4c(c3)OCCO4)n12 [CR-58]", "Experimental Target": "human CB2 (Homo sapiens)", "Val": 7.2}
{"Compound": "CCC(C)Oc1cccc2nc(-c3c(F)cccc3Cl)c(Nc3ccc4c(c3)OCCO4)n12 (centres unmarked) [CR-62]", "Experimental Target": "human CB2 (Homo sapiens)", "Val": 7.0}
{"Compound": "COc1cccc2nc(-c3c(C)cc(OCCF)cc3C)c(Nc3ccc4c(c3)OCCO4)n12 [CR-21]", "Experimental Target": "human CB2 (Homo sapiens)", "Val": 8.3}
{"Compound": "COc1cccc2nc(-c3c(Cl)cncc3Cl)c(Nc3ccc4c(c3)OCCO4)n12 [CR-20]", "Experimental Target": "human CB2 (Homo sapiens)", "Val": 8.4}
{"Compound": "COc1cc(-c2nc3cccc(C)n3c2Nc2ccc3c(c2)OCCO3)cc(F)c1O [CR-95]", "Experimental Target": "human CB2 (Homo sapiens)", "Val": 6.6}
{"Compound": "FCCOc1ccc2nc(-c3c(F)cccc3Cl)c(Nc3ccc4c(c3)OCCO4)n2c1 [CR-41]", "Experimental Target": "human CB2 (Homo sapiens)", "Val": 7.5}
{"Compound": "COc1cccc2nc(-c3c(Cl)cccc3Cl)c(Nc3ccc4c(c3)OCCO4)n12 [CR-18]", "Experimental Target": "human CB2 (Homo sapiens)", "Val": 8.4}
{"Compound": "COc1cc(-c2nc3cnccn3c2Nc2ccc3c(c2)OCCO3)cc(F)c1O [CR-91]", "Experimental Target": "human CB2 (Homo sapiens)", "Val": 6.6}
{"Compound": "Cc1cccc2nc(-c3c(F)cc(C#N)cc3F)c(Nc3ccc4c(c3)OCCO4)n12 [CR-53]", "Experimental Target": "human CB2 (Homo sapiens)", "Val": 7.3}
{"Compound": "Cc1ccn2c(Nc3ccc4c(c3)OCCO4)c(-c3c(Cl)cccc3Cl)nc2c1 [CR-68]", "Experimental Target": "human CB2 (Homo sapiens)", "Val": 6.9}
{"Compound": "COc1cc(-c2nc3cc(C)ccn3c2Nc2ccc3c(c2)OCO3)cc(F)c1O [CR-130]", "Experimental Target": "human CB2 (Homo sapiens)", "Val": 6.1}
{"Compound": "COc1cc(-c2nc3ccc(C)cn3c2Nc2ccc3c(c2)OCCO3)cc(F)c1O [CR-96]", "Experimental Target": "human CB2 (Homo sapiens)", "Val": 6.5}
{"Compound": "Cc1cccc2nc(-c3ccc(OCCF)c(O)c3)c(Nc3ccc4c(c3)OCCO4)n12 [CR-69]", "Experimental Target": "human CB2 (Homo sapiens)", "Val": 6.8}
{"Compound": "Clc1cncc(Cl)c1-c1nc2ccccn2c1Nc1ccc2c(c1)OCCO2 [CR-64]", "Experimental Target": "human CB2 (Homo sapiens)", "Val": 7.0}
{"Compound": "Cc1cccc2nc(-c3c(F)cc(O)cc3F)c(Nc3ccc4c(c3)OCCO4)n12 [CR-28]", "Experimental Target": "human CB2 (Homo sapiens)", "Val": 7.9}
{"Compound": "Cc1cccc2nc(-c3c(Cl)cccc3Cl)c(Nc3ccc4c(c3)OCCO4)n12 [CR-32]", "Experimental Target": "human CB2 (Homo sapiens)", "Val": 7.8}
